# test_system: P2X3 (Homo sapiens, UniProt P56373)
# Sequence (P56373 1-397): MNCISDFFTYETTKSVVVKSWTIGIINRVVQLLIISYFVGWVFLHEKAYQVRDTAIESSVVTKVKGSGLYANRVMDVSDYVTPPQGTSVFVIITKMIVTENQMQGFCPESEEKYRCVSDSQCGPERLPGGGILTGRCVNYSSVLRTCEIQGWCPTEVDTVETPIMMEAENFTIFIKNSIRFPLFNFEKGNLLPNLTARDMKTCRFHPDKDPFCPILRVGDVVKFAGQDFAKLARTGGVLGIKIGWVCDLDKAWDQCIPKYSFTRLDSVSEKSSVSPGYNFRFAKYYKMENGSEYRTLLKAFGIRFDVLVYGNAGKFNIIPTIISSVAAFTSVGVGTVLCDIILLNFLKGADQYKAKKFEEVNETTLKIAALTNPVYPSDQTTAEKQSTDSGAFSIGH
# procedure_details: Calcium uptake assay (P2X antagonist assay, inhibition of agonist-induced calcium influx), P2X3
# condition_set: inhibition of agonist-induced calcium influx in cells expressing the receptor
assay_readout: IC50
Report field: quantity (unit follows the number).

>>> recorded_value("N#Cc1cc(Br)ccc1N1CCc2ncnc(NCc3ccc(C(F)(F)F)nc3)c2C1")
"0.08 µM"

Print P2X3 (Homo sapiens, UniProt P56373) IC50 for "N#Cc1cc(Cl)ccc1N1CCc2ncnc(NCc3ncc(C(F)(F)F)cc3Cl)c2C1" .
0.091 µM

Print P2X3 (Homo sapiens, UniProt P56373) IC50 for "Cc1ccc(N2CCc3ncnc(NCc4ccc(C)c(C#N)c4)c3C2)c(C#N)c1" .
0.063 µM

Print P2X3 (Homo sapiens, UniProt P56373) IC50 for "Cc1ccc(N2CCc3ncnc(NCc4ccc(C)c(F)c4)c3C2)c(C#N)c1" .
0.089 µM
